Experiment: Thermodynamic aqueous solubility of compound in pH 7.4 PBS by UPLC-MS analysis
Type: physicochemical
Details: PBS pH 7.4, pH 7.4; read-out: Therm_solubility
Where a SMILES comes first, the peptide text is derived from it. [ ]: non-standard residue; d: D form. NMeY = CN[C@@H](Cc1ccc(O)cc1)C(=O)O; dNMeF = CN[C@H](Cc1ccccc1)C(=O)O; NMeA = CN[C@@H](C)C(=O)O; Sar = CNCC(=O)O
parameter: solubility thermodynamic (µM)

Solved entries (count: 2):
CC[C@H](C)[C@@H]1NC(=O)[C@H](C)N(C)C(=O)[C@H](Cc2ccccc2)NC(=O)CN(C)C(=O)[C@@H]2CCCN2C(=O)[C@@H](Cc2ccccc2)N(C)C(=O)[C@H](CC(C)C)NC1=O (cyclo(F[NMeA]IL[dNMeF]P[Sar])) :: 16
C/C=C/C[C@@H](C)[C@@H](O)[C@H]1C(=O)N[C@@H](C(C)C)C(=O)N(C)CC(=O)N(C)[C@@H](CC(C)C)C(=O)N[C@@H](C(C)C)C(=O)N(C)[C@@H](CC(C)C)C(=O)N[C@@H](C)C(=O)N[C@H](C)C(=O)N(C)[C@@H](CC(C)C)C(=O)N(C)[C@@H](CC(C)C)C(=O)N(C)[C@@H](C(C)C)C(=O)N1C :: 0.12

(a) CC[C@H](C)[C@@H]1NC(=O)[C@H](Cc2ccc(O)cc2)N(C)C(=O)[C@H](Cc2ccccc2)NC(=O)CN(C)C(=O)[C@@H]2CCCN2C(=O)[C@@H](Cc2ccccc2)N(C)C(=O)[C@H](C)NC1=O (cyclo(A[dNMeF]P[Sar]F[NMeY]I))
(b) CC[C@H](C)[C@@H]1NC(=O)[C@H](Cc2ccc(O)cc2)N(C)C(=O)[C@H](Cc2ccccc2)NC(=O)CN(C)C(=O)[C@@H]2CCCN2C(=O)[C@@H](Cc2ccccc2)N(C)C(=O)[C@H](CC(C)C)NC1=O [CORDYHEPTAPEPTIDE A] (cyclo(F[NMeY]IL[dNMeF]P[Sar]))
Inquiry: Hi! Which is lower in terms of solubility thermodynamic, the first one a or the second one b ? When you have decided, please share the label of that item.
Reply text: b
